Consider the following binders; for each one, report its koff.
experimental-target: T1, human serum albumin (human, UniProt P02768 25-609)
T1 construct: Bought recombinant product; also called HSA; Albucult
T1 sequence (P02768 25-609 limits assumed): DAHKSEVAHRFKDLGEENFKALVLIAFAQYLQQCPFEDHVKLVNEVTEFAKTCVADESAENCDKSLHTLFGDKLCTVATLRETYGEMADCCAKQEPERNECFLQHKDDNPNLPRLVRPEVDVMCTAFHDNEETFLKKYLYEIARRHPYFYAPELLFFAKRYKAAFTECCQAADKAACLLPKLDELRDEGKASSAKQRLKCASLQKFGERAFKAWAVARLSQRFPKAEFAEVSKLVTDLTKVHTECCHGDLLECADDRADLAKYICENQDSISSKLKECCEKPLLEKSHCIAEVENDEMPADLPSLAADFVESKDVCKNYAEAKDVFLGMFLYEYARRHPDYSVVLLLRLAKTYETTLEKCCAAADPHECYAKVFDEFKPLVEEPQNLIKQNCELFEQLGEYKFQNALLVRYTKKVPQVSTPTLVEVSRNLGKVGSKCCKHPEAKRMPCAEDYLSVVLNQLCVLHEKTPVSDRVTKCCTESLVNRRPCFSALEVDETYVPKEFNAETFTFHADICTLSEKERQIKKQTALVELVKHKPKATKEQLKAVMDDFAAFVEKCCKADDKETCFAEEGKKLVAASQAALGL
assay-explanation: SPR Biacore2000, HSA immobilized on CM-5, polypeptide as analyte, 1:1 Langmuir fit, relative values
Report as a plain number; the unit s⁻¹ is understood.

**Q:** I would be grateful if you could share the reported koff for GSSLAEAKEAANAELDSYGVSDFYKRLIDKAKTVEGVEALKDAILAALP (designed binder, single Arg at position 23 of the 46-mer; GSS extension at the N-terminus; also called ABD variant; control) [PEP07843] .
**A:** 2.99e-05

**Q:** I would be grateful if you could share the reported koff for GSSLAEAKEAANAELDSYGVSDFYKSLIDKAKTVEGVEALKDAILAALP (designed binder, Control polypeptide; 46 residues with an N-terminal GSS extension; R23S against PEP07843 (position counted on the 46-mer without GSS); Expressed in E. coli; also called ABD variant; R23S variant of PEP07843) [PEP12381] .
**A:** 3.08e-05

**Q:** I would be grateful if you could share the reported koff for GSSLAEAKEAANAELDSYGVSDFYKKLIDKAKTVEGVEALKDAILAALP (designed binder, Inventive variant; 46 residues with an N-terminal GSS extension; R23K against PEP07843 (position counted on the 46-mer without GSS); Expressed in E. coli; also called ABD variant; R23K variant of PEP07843) [PEP12380] .
**A:** 2.62e-05

**Q:** I would be grateful if you could share the reported koff for GSSLAEAKEAANAELDSYGVSDFYKNLIDKAKTVEGVEALKDAILAALP (designed binder, R23N against PEP07843 (position counted on the 46-mer without GSS); Control polypeptide, expressed in E. coli; also called ABD variant; R23N variant of PEP07843) [PEP12379] .
**A:** 2.36e-05
